- method-summary: clinical
- condition: human, in vivo
reported-endpoint: CL renal (mL/min/kg)
Please give a number only; it is taken to be in mL/min/kg.

Cc1cn([C@H]2C[C@H](N=[N+]=[N-])[C@@H](CO)O2)c(=O)[nH]c1=O [ZIDOVUDINE] = 5.67
O=c1[nH]cnc2c1ncn2[C@H]1CC[C@@H](CO)O1 [DIDANOSINE] = 6.8
CCN[C@@H]1C[C@H](N)[C@@H](O[C@H]2OC(CN)=CC[C@H]2N)[C@H](O)[C@H]1O[C@H]1OC[C@](C)(O)[C@H](NC)[C@H]1O [NETILMICIN] = 0.28
C=CC[C@@H]1/C=C(\C)C[C@H](C)C[C@H](OC)[C@H]2O[C@@](O)(C(=O)C(=O)N3CCCC[C@H]3C(=O)O[C@H](/C(C)=C/[C@@H]3CC[C@@H](O)[C@H](OC)C3)[C@H](C)[C@@H](O)CC1=O)[C@H](C)C[C@@H]2OC [TACROLIMUS ANHYDROUS] = 0.01
Cn1nnnc1SCC1=C(C(=O)O)N2C(=O)[C@@H](NC(=O)[C@H](O)c3ccccc3)[C@H]2SC1 [CEFAMANDOLE] = 2.7

Request: Give me measured CL renal, please, for this molecule: COC(=O)[C@H]1[C@@H](OC(=O)c2ccccc2)C[C@@H]2CC[C@H]1N2C [COCAINE]
Result: 0.4

Request: Complete the entry with CL renal for NCCCC[C@H](N[C@@H](CCc1ccccc1)C(=O)O)C(=O)N1CCC[C@H]1C(=O)O [LISINOPRIL ANHYDROUS]
Result: 1.2

Request: Determine its reported CL renal: `C=C1CC[C@@]2(O)[C@H]3Cc4ccc(O)c5c4[C@@]2(CCN3CC2CC2)[C@H]1O5`
Result: 0.75

Request: Please give the documented CL renal of CC(=O)Oc1ccccc1C(=O)O [ASPIRIN]
Result: 0.24

Request: Supply CL renal value. Item: Nc1ccn(C[C@@H](CO)OCP(=O)(O)O)c(=O)n1.O.O [CIDOFOVIR]
Result: 2.25

src = ChEMBL document CHEMBL1151930
